Where these numbers come from: patent US20210253562A1

- TARGET SYSTEM: EP3 membrane (EP3 receptor) (Homo sapiens, UniProt P43115)
- Construct: purchased Millipore HTS092M
- Sequence (P43115 whole entry): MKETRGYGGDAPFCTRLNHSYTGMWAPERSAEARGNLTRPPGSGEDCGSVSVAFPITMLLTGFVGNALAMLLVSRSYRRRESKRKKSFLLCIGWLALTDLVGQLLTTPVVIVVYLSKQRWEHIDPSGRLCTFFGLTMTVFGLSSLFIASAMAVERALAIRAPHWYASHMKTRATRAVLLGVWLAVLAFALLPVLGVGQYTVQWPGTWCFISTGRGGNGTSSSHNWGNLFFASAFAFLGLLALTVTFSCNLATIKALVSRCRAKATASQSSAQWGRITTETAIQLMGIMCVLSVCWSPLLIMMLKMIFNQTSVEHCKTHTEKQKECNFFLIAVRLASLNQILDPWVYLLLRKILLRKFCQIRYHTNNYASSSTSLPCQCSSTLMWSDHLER
- ASSAY OVERVIEW: [3H]-PGE2 binding; EP3 competition binding (SPA)
pKi: −log10 of the molar value.
Label t for high-side pKi (at or above 8) and f for low-side pKi (below it).

Task: Does the reported pKi for COc1ccc(S(=O)(=O)NC(=O)CC/C=C2\CCCc3cnn(Cc4ccc(Cl)cc4Cl)c32)cc1 [Compound #30] fall at or above the 8 mark?
Result: f

Task: Does the reported pKi for O=C(C/C=C1\CCCc2cnn(Cc3ccc(Cl)cc3Cl)c21)NS(=O)(=O)c1ccc(Cl)s1 [Compound #17] fall at or above the 8 mark?
Result: f

Task: Does the reported pKi for O=C(NC/C(F)=C1\COCc2cnn(Cc3ccc(Cl)cc3Cl)c21)NS(=O)(=O)c1ccc(Cl)cc1 [Compound #83] fall at or above the 8 mark?
Result: f

Task: Does the reported pKi for Cc1cc(S(=O)(=O)NC(=O)NC/C(F)=C2\COCc3[nH]nc(Cc4ccc(Cl)cc4Cl)c32)sc1Cl [Compound #190] fall at or above the 8 mark?
Result: t

Task: Does the reported pKi for Cn1ccc(S(=O)(=O)NC(=O)NC/C=C2\CCCc3cnn(Cc4ccc(Cl)cc4Cl)c32)n1 [Compound #153] fall at or above the 8 mark?
Result: f

Task: Does the reported pKi for COc1ccc(Cl)cc1S(=O)(=O)NC(=O)NC/C(F)=C1/c2c(cnn2Cc2ccc(Cl)cc2Cl)CCC1F (centres unmarked) [Compound #103] fall at or above the 8 mark?
Result: f

Task: Does the reported pKi for O=C(NC/C=C1/c2c(cnn2Cc2ccc(Cl)cc2Cl)CCC1F)NS(=O)(=O)c1ccc(Cl)cc1 (centres unmarked) [Compound #73] fall at or above the 8 mark?
Result: t

Task: Does the reported pKi for O=C(NC/C=C1\CCCc2cnn(-c3ccc(Cl)cc3Cl)c21)NS(=O)(=O)c1cc(Cl)c(Cl)s1 [Compound #84] fall at or above the 8 mark?
Result: t

Task: Does the reported pKi for COc1ccc(F)c(S(=O)(=O)NC(=O)NC/C=C2\COCc3cnn(Cc4ccc(Cl)cc4Cl)c32)c1 [Compound #68] fall at or above the 8 mark?
Result: f

Task: Does the reported pKi for COc1ccc(S(=O)(=O)NC(=O)NC/C=C2\COCc3cnn(Cc4ccc(Cl)cc4Cl)c32)cn1 [Compound #67] fall at or above the 8 mark?
Result: f

Task: Does the reported pKi for O=C(NC/C(F)=C1\CCCc2cnn(Cc3ccc(Cl)cc3Cl)c21)NS(=O)(=O)c1ccc(Cl)cc1 [Compound #86] fall at or above the 8 mark?
Result: f

Task: Does the reported pKi for O=C(NC/C(F)=C1\CCCc2cnn(Cc3ccc(Cl)cc3Cl)c21)NS(=O)(=O)c1cc(Cl)c(Cl)s1 [Compound #40] fall at or above the 8 mark?
Result: t

Task: Does the reported pKi for O=C(NC/C(F)=C1\CCCc2cnn(Cc3ccc(Cl)cc3Cl)c21)NS(=O)(=O)c1ccc(F)c(F)c1 [Compound #156] fall at or above the 8 mark?
Result: t

Task: Does the reported pKi for Cc1cc(S(=O)(=O)NC(=O)NC/C(F)=C2\CCCc3cnn(Cc4ccc(Cl)cc4Cl)c32)sc1Cl [Compound #149] fall at or above the 8 mark?
Result: t

Task: Does the reported pKi for COc1ccc(Cn2ncc3c2/C(=C(\F)CNC(=O)NS(=O)(=O)c2cc(Cl)c(Cl)s2)CCC3)cn1 [Compound #141] fall at or above the 8 mark?
Result: f

Task: Does the reported pKi for Cn1nc(Cc2ccc(Cl)cc2Cl)c2c1COC/C2=C(/F)CNC(=O)NS(=O)(=O)c1cc(Cl)c(Cl)s1 [Compound #186] fall at or above the 8 mark?
Result: f

Task: Does the reported pKi for COc1ccc(F)cc1S(=O)(=O)NC(=O)NC/C(F)=C1\CCCc2cnn(Cc3ccc(Cl)cc3Cl)c21 [Compound #90] fall at or above the 8 mark?
Result: f

Task: Does the reported pKi for O=C(NC/C(F)=C1\CCCc2cnn(Cc3ccc(Cl)cc3Cl)c21)NS(=O)(=O)c1cc2ccccc2o1 [Compound #111] fall at or above the 8 mark?
Result: f

Task: Does the reported pKi for CC(C)n1cc(S(=O)(=O)NC(=O)NC/C=C2\CCCc3cnn(Cc4ccc(Cl)cc4Cl)c32)cn1 [Compound #173] fall at or above the 8 mark?
Result: f

Task: Does the reported pKi for CC(=O)Nc1nc(C)c(S(=O)(=O)NC(=O)NC/C(F)=C2\CCCc3cnn(Cc4ccc(Cl)cc4Cl)c32)s1 [Compound #182] fall at or above the 8 mark?
Result: f

Task: Does the reported pKi for O=C(CC/C(F)=C1\CCCc2cnn(Cc3ccc(Cl)cc3Cl)c21)NS(=O)(=O)c1cc(Cl)c(Cl)s1 [Compound #56] fall at or above the 8 mark?
Result: t

Task: Does the reported pKi for COc1ccc(Br)cc1S(=O)(=O)NC(=O)NC/C=C1\CCCc2cnn(Cc3ccc(Cl)cc3Cl)c21 [Compound #42] fall at or above the 8 mark?
Result: t

Task: Does the reported pKi for Cc1c(S(=O)(=O)NC(=O)NC/C=C2\CCCc3cnn(Cc4ccc(Cl)cc4Cl)c32)cnn1C [Compound #172] fall at or above the 8 mark?
Result: t

Task: Does the reported pKi for O=C(NC/C=C1\CCCc2cnn(-c3cccc(-c4ccc(F)cc4)c3)c21)NS(=O)(=O)c1cc(Cl)c(Cl)s1 [Compound #76] fall at or above the 8 mark?
Result: t

Task: Does the reported pKi for Cc1cc(S(=O)(=O)NC(=O)NC/C=C2\CCCc3cnn(Cc4ccc(Cl)cc4Cl)c32)sc1Cl [Compound #185] fall at or above the 8 mark?
Result: t

* * *

For each record, write down the corresponding pIC50.
- TARGET SYSTEM: CHO cells over-expressing the EP3 receptor (Homo sapiens, UniProt P43115)
- Sequence (P43115 whole entry): as above
- ASSAY OVERVIEW: CHO cell cAMP assay; EP3 cAMP antagonist dose response (sulprostone reference), HTRF
- ASSAY CONDITIONS: sulprostone 700 nM (EC80) and FSK 2 μM (EC70); read-out: CHO_cAMP IC50
- Protocol: Biological Example 2: CHO Cell cAMP Assay This assay monitored the cAMP generation in CHO cells over-expressing the EP3 receptor in the presence or absence of antagonist stimulated with Forskolin (FSK, CAS No. 66428-89-5) and a known EP3 Agonist (sulprostone, CAS No. 60325-46-4). For detection, a homogeneous competitive immunoassay (Time Resolved Fluorescence Energy Transfer (hTR-FRET)) was used. […] IC50 values were determined from a […] (Hill equation) of a single 11-point compound dosing. […]
Expect pIC50 as a plain number equal to -log10 of the molar concentration.

Task: Please look up its pIC50: `O=C(NC/C(F)=C1\CCCn2nnc(Cc3ccccc3)c21)NS(=O)(=O)c1cc(Cl)c(Cl)s1`
Result: 6.26

Task: Please look up its pIC50: `COc1ccc(Br)cc1S(=O)(=O)NC(=O)NC/C=C1\CCCc2cnn(Cc3ccc(Cl)cc3Cl)c21`
Result: 8.22

Task: Please look up its pIC50: `O=C(NC/C=C1\CCCc2cnn(Cc3cnc(-c4ccccc4)nc3)c21)NS(=O)(=O)c1cc(Cl)c(Cl)s1`
Result: 8.22

Task: Please look up its pIC50: `COc1ccc(Br)cc1S(=O)(=O)NC(=O)CC/C=C1\CCCc2cnn(Cc3ccc(Cl)cc3Cl)c21`
Result: 8.05

Task: Please look up its pIC50: `CN(C/C=C1\CCCc2cnn(Cc3ccc(Cl)cc3Cl)c21)C(=O)NS(=O)(=O)c1ccc(Cl)cc1`
Result: 8.05

Task: Please look up its pIC50: `O=C(NS(=O)(=O)c1cc(Cl)c(Cl)s1)OC/C(F)=C1\CCCc2cnn(Cc3ccc(Cl)cc3Cl)c21`
Result: 7.96

Task: Please look up its pIC50: `CN(C/C=C1\COCc2cnn(Cc3ccc(Cl)cc3Cl)c21)C(=O)NS(=O)(=O)c1cc(Cl)c(Cl)s1`
Result: 7.96

* * *

For each record, write down the corresponding pIC50.
- TARGET SYSTEM: CHO cells over-expressing the EP3 receptor (Homo sapiens, UniProt P43115)
- ASSAY OVERVIEW: CHO cell cAMP assay; EP3 cAMP antagonist dose response (sulprostone reference), HTRF
- ASSAY CONDITIONS: sulprostone 700 nM (EC80) and FSK 2 μM (EC70); read-out: CHO_cAMP IC50
pIC50: −log10 of the molar value.

Task: Please look up its pIC50: `O=C(NS(=O)(=O)c1ccc(Cl)cc1)OC/C(F)=C1/COCc2cnn(-c3cccc(C(F)(F)F)c3)c21`
Result: < 4.70

Task: Please look up its pIC50: `O=C(NC/C(F)=C1/CCCc2onc(Cc3ccc(Cl)cc3Cl)c21)NS(=O)(=O)c1cc(Cl)c(Cl)s1`
Result: 5.08

Task: Please look up its pIC50: `COc1ccc(F)cc1S(=O)(=O)NC(=O)NC/C(F)=C1/CCCc2cnn(-c3ccc4ccccc4c3)c21`
Result: < 4.70
